These entries and their values trace back to patent US20160227776A1.

# Attraction Rate annotations
- Tested on: Frankliniella occidentalis
- measurement-notes: Test Example 2: water trap attraction test, mixtures of two compounds
- Type: in vivo
- condition: single compound for comparison, 1 μg; 24 hours
// no unit string in output, number only

Prompt: Form entry - test system: Frankliniella occidentalis; read-out: Attraction Rate; compound: O=Cc1ccccc1 [Benzaldehyde, benzaldehyde]
Response: 36

Prompt: Form entry - test system: Frankliniella occidentalis; read-out: Attraction Rate; compound: CC(C)=CCC/C(C)=C\CO [Nerol, nerol]
Response: 33

Prompt: Form entry - test system: Frankliniella occidentalis; read-out: Attraction Rate; compound: CCCCCCC(C=O)=Cc1ccccc1 [α-hexylcinnamaldehyde]
Response: 33

Continuing:
Prompt: Form entry - test system: Frankliniella occidentalis; read-out: Attraction Rate; compound: C=CC(C)(O)CCC=C(C)C (stereo not shown) [Linalool, linalool]
Response: 20
